Attribution: patent US10968186B2

experiment-notes: Stability against mouse liver microsomes
Type: in vitro ADME
reported-conditions: mouse LM, 2 μM compound, 60 min, NADPH
outcome-measure: Liver microsome stability remaining % after 60 min incubation with NADPH, mouse LM (%)
Unit % implied. Number only.

Value of Liver microsome stability remaining % after 60 min incubation with NADPH, mouse LM reported for the molecule CO/N=C/c1c(C)c(Cl)c(OC)c(C/C=C(C)/C=C/[C@@]2(C)[C@H](C)CC/C(=N\OCCN3CCOCC3)[C@@H]2C)c1O [Compound 16] is 76

Value of Liver microsome stability remaining % after 60 min incubation with NADPH, mouse LM reported for the molecule CO/N=C/c1c(C)c(Cl)c(OC)c(C/C=C(C)/C=C/[C@@]2(C)[C@H](C)CCC(NC3COC3)[C@@H]2C)c1O (stereo partly drawn) [Compound 25] is 39

Value of Liver microsome stability remaining % after 60 min incubation with NADPH, mouse LM reported for the molecule CC(/C=C/[C@@]1(C)[C@H](C)CC/C(=N\O)[C@@H]1C)=C\Cc1c(O)c(C=O)c(C)c(Cl)c1OCF [Compound 5] is 88

----------
Task for the reader: assign each of the following compounds its reported Liver microsome stability remaining % after 60 min incubation with NADPH, mouse LM.
experiment-notes: Stability against mouse liver microsomes
Assay type: in vitro ADME
reported-conditions: mouse LM, 2 μM compound, 60 min, NADPH
Unit % implied. Number only.

Value of Liver microsome stability remaining % after 60 min incubation with NADPH, mouse LM reported for the compound CO/N=C/c1c(C)c(Cl)c(OC)c(C/C=C(C)/C=C/[C@@]2(C)[C@H](C)CCC(NC3CC3)[C@@H]2C)c1O (stereo partly drawn) is 98

Value of Liver microsome stability remaining % after 60 min incubation with NADPH, mouse LM reported for the compound CC(/C=C/[C@@]1(C)[C@H](C)CC/C(=N\OCC(=O)O)[C@@H]1C)=C\Cc1c(O)c(/C=N/O)c(C)c(Cl)c1OCF is 97

Value of Liver microsome stability remaining % after 60 min incubation with NADPH, mouse LM reported for the compound CCOC(=O)CO/N=C1\CC[C@@H](C)[C@](C)(/C=C/C(C)=C/Cc2c(O)c(/C=N/OC)c(C)c(Cl)c2OC)[C@H]1C is 59

----------
experiment-notes: Stability against mouse liver microsomes
Format: in vitro ADME
reported-conditions: mouse LM, 2 μM compound, 60 min, NADPH
Task for the reader: assign each of the following compounds its reported Liver microsome stability remaining % after 60 min incubation with NADPH, mouse LM.
Unit % implied. Number only.

Value of Liver microsome stability remaining % after 60 min incubation with NADPH, mouse LM reported for the compound CO/N=C/c1c(C)c(Cl)c(OCF)c(C/C=C(C)/C=C/[C@@]2(C)[C@H](C)CC/C(=N\OC)[C@@H]2C)c1O [Compound 9] is 83

Value of Liver microsome stability remaining % after 60 min incubation with NADPH, mouse LM reported for the compound CO/N=C/c1c(C)c(Cl)c(OCF)c(C/C=C(C)/C=C/[C@@]2(C)[C@H](C)CC/C(=N\O)[C@@H]2C)c1O [Compound 11] is 56

Value of Liver microsome stability remaining % after 60 min incubation with NADPH, mouse LM reported for the compound CO/N=C/c1c(C)c(Cl)c(OC)c(C/C=C(C)/C=C/[C@@]2(C)[C@H](C)CC/C(=N\OC)[C@@H]2C)c1O [Compound 8] is 89

----------
experiment-notes: Solubility in pH4.0 and pH7.4 phosphate buffer solution
Format: physicochemical
reported-conditions: phosphate buffer (PBS), aqueous buffer, kinetic from dmso stock; pH 7.4 phosphate buffer solution, 2 hr incubation, 25° C.; read-out: Solubility, pH 7.4 PBS
outcome-measure: solubility at 2 h (µM)
Unit µM implied. Number only.

Value of solubility at 2 h reported for the compound CO/N=C/c1c(C)c(Cl)c(OC)c(C/C=C(C)/C=C/[C@@]2(C)[C@H](C)CC/C(=N\OCCN(C)C)[C@@H]2C)c1O is 0.29

Value of solubility at 2 h reported for the compound COc1c(Cl)c(C)c(C=O)c(O)c1C/C=C(C)/C=C/[C@@]1(C)[C@H](C)CCC(=O)[C@@H]1C [MAC, reference compound] is 0.07

Value of solubility at 2 h reported for the compound CCNC1CC[C@@H](C)[C@](C)(/C=C/C(C)=C/Cc2c(O)c(/C=N/OC)c(C)c(Cl)c2OC)[C@H]1C (stereo partly drawn) is 0.003

Value of solubility at 2 h reported for the compound CC(/C=C/[C@@]1(C)[C@H](C)CC/C(=N\OCC(=O)O)[C@@H]1C)=C\Cc1c(O)c(/C=N/O)c(C)c(Cl)c1OCF is 315

Value of solubility at 2 h reported for the compound CC(/C=C/[C@@]1(C)[C@H](C)CC/C(=N\OCC(=O)O)[C@@H]1C)=C\Cc1c(O)c(C=O)c(C)c(Cl)c1OCF is 12.3

Value of solubility at 2 h reported for the compound COc1c(Cl)c(C)c(C=O)c(O)c1C/C=C(C)/C=C/[C@@]1(C)[C@H](C)CCC(NC2CC2)[C@@H]1C (stereo partly drawn) is 0.01
